EC50 overview
- Experimental target: T1, human full length TDP-43 (FL TDP-43), recombinant, soluble (human, UniProt Q13148 1-414)
- T1 construct: Antigen of Luminex, ELISA and SPR (soluble form); also called TDP-43 protein; Soluble TDP-43
- T1 sequence (Q13148 whole entry): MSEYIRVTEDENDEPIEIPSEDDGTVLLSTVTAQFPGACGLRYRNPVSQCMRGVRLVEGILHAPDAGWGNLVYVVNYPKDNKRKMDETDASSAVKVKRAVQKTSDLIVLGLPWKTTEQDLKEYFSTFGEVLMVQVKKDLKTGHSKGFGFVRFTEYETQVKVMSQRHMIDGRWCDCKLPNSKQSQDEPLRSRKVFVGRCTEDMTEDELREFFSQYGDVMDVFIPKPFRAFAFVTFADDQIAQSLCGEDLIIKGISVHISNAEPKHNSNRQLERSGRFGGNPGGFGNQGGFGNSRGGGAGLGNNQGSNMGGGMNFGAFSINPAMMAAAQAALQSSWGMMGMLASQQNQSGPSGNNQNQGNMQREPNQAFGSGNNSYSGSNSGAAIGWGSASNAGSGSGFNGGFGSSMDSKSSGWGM
- Method notes: Luminex, beads conjugated to FL TDP-43, antibody serial dilution

Example entries and their recorded answers appear below.
| Binder | Reported result |
| --- | --- |
| ACI-7071-809F12-Ab1 (antibody, IgG2b, V domains shown, also called 809F12D8) VH: QVQLKESGPGLVAPSQSLSITCTVSGFSLNRNGVQWVRQPPGKGLEWLGVIWPGGSTNCNSALMSRLSISKDNSKSQVFLKMNSLHTDDTGIYYCARVGGNYVWDYNNYAWGQGTLVTVSA VL: DVLMTQTPLSLPVSLGDQASISCRSSQNIVHSIGNTYLEWYLQKPGQSPKLLIYKVSNRFSGVPDRFSGSGSGTDFTLKISRVEAEDLGVYYCFQGSHVPYTFGGGTKLEIR | < 10 µM |
| ACI-7069-634H10-Ab2 (antibody, IgG2b, V domains shown, also called 634H10H7) VH: EVQLQQSGAELVKPGASVRLSCTASGFNIKDTYMHWVKQRPEQGLEWIGRIDPANSNTKFDPKFQGKATITSDTSSNTAYLQLSSLTSEDTAVYYCARFYGGSHWYFDVWGAGTTVTVSS VL: DIKMTQSPSSMYASLGERVTITCKASQDIKSYLSWYQHKPWKSPKALIYYATSLADGVPSRFSGSGSGQDYSLTISSLESDDTATYYCLQQGESPYTFGGGTKLEIK | < 10 µM |

With those in mind, consider the next binder.
(Q) Query (binder): ACI-7069-636E5-Ab1 (antibody, IgG2b, V domains shown, also called 636E5B8) VH: EVHLVESGGDLVMPGGSLKLSCAASGFTFSNYGMSWVRQTPDKRLEWVATISSGGKYINYLDSLKGRFTISRDNAKNTLYLQMSSLKSEDTAMYYCAKDYGSGWAWFAYWGQGTLVTVSA VL: QLVLTQSSSASFSLGASAKLTCTLSSQHSTYTIEWYQQQPLKPPKYVMELKKDGSHSTGDGIPDRFSGSSSGADRYLSISNIQPEDEAIYICGVGDTIKEQFVYVFGGGTKVTVL ; field requested: EC50
(A) < 10 µM
